Hi there, I'd appreciate the recorded Papp at 2 h, 1 μM for every entry that follows.
- TEST_DESCRIPTION: Transwell assay for membrane efflux and permeability
- Assay type: in vitro ADME, Canine
- CONDITION_PARAMETERS: dog; MDCK-BCRP or MDCKII-MDR1 transwell, test compound 1 μM, 2 hours at 37° C.

Query: Need Papp at 2 h, 1 μM of COc1nc(-c2ccc(N(C)[C@@H]3C[C@H]4CC[C@@H](C3)N4)nn2)cc(F)c1-c1cn[nH]c1 , thanks.
Response: < 2 ×10⁻⁶ cm/s

Query: Need Papp at 2 h, 1 μM of CN(c1ccc(-c2ccc(-c3cnn(C)c3)c3cn[nH]c23)nn1)[C@@H]1C[C@H]2CC[C@@H](C1)N2 , thanks.
Response: < 2 ×10⁻⁶ cm/s

Query: Need Papp at 2 h, 1 μM of Fc1ccn(-c2ccc(-c3ccc(O[C@@H]4C[C@H]5CC[C@@H](C4)N5)nn3)c3scnc23)n1 , thanks.
Response: < 2 ×10⁻⁶ cm/s

Query: Need Papp at 2 h, 1 μM of CN(c1ccc(-c2ccc(-c3cn[nH]c3)c(C#N)n2)nn1)[C@@H]1C[C@H]2CC[C@@H](C1)N2 , thanks.
Response: < 2 ×10⁻⁶ cm/s

Query: Need Papp at 2 h, 1 μM of CN(c1ncc(-c2ccc(-n3cncn3)c3[nH]ncc23)nn1)[C@@H]1C[C@H]2CCC[C@@H](C1)N2 , thanks.
Response: < 2 ×10⁻⁶ cm/s

Query: Need Papp at 2 h, 1 μM of COc1nc(-c2ccc(OC3CC(C)(C)NC(C)(C)C3)nn2)cc(F)c1-c1cn[nH]c1 , thanks.
Response: 2 to 6 ×10⁻⁶ cm/s

Query: Need Papp at 2 h, 1 μM of CN(c1ccc(-c2ccc(-c3cn[nH]c3)c3ncsc23)nn1)[C@@H]1C[C@H]2CC[C@@H](C1)N2 , thanks.
Response: < 2 ×10⁻⁶ cm/s

Query: Need Papp at 2 h, 1 μM of COc1nc(-c2ccc(OC3CC(C)(C)NC(C)(C)C3)nn2)ccc1-c1cnn(C)c1 , thanks.
Response: 2 to 6 ×10⁻⁶ cm/s

Query: Need Papp at 2 h, 1 μM of CC1(C)CC(Oc2ccc(-c3cc(F)c(-c4cn[nH]c4)c4cn[nH]c34)nn2)CC(C)(C)N1 , thanks.
Response: 2 to 6 ×10⁻⁶ cm/s

Query: Need Papp at 2 h, 1 μM of COc1nc(-c2ccc(OC3CC4CC(F)(F)C(C3)N4)nn2)cc(F)c1-c1cn[nH]c1 (stereo not drawn) , thanks.
Response: 2 to 6 ×10⁻⁶ cm/s

Query: Need Papp at 2 h, 1 μM of Fc1cc(-c2ccc(O[C@@H]3C[C@H]4CC[C@@H](C3)N4)nn2)c2sncc2c1-c1cn[nH]c1 , thanks.
Response: 2 to 6 ×10⁻⁶ cm/s

Query: Need Papp at 2 h, 1 μM of CN(c1ccc(-c2ccc(-c3ccc(=O)n(C)c3)c3scnc23)nn1)C1CC(C)(C)NC(C)(C)C1 , thanks.
Response: < 2 ×10⁻⁶ cm/s

Query: Need Papp at 2 h, 1 μM of COc1nc(-c2ccc(N(C)C3CC(C)(C)NC(C)(C)C3)nn2)ccc1-c1cn[nH]c1 , thanks.
Response: < 2 ×10⁻⁶ cm/s

Query: Need Papp at 2 h, 1 μM of c1nc2c(-c3cn[nH]c3)ccc(-c3ccc(N[C@@H]4C[C@H]5CC[C@@H](C4)N5)nn3)c2s1 , thanks.
Response: < 2 ×10⁻⁶ cm/s

Query: Need Papp at 2 h, 1 μM of CC(C)(C)C1CN(c2ncc(-c3ccc(-n4cccn4)c4[nH]ncc34)nn2)CCN1 (stereo not drawn) , thanks.
Response: < 2 ×10⁻⁶ cm/s

The measured values listed here are drawn from patent US20240368163A1.
